Assay: physchem
Set-up: dose or concentration left out as unconfirmed
Settings: PAMPA, pH 7.4
The following molecules are listed with their measured Papp values.
// note: answer is a bare numeric in nm/s

Reference set (2 entries):
# Molecule, Meas value
data = [
    ("CC[C@@]1(O)C(=O)OCc2c1cc1n(c2=O)Cc2c-1nc1cc(F)c(C)c3c1c2[C@@H]([C@H](CCO)NC(C)C)CC3 (single isomer, unassigned) [Compound 14-92]", 84),
    ("CC[C@@]1(O)C(=O)OCc2c1cc1n(c2=O)Cc2c-1nc1cc(F)c(C)c3c1c2[C@H]([C@H](CO)NC(C)C)CC3 (single isomer, unassigned) [Compound 17-114]", 80),
]

Now for another entry.
Papp recorded for this molecule, CC[C@@]1(O)C(=O)OCc2c1cc1n(c2=O)Cc2c-1nc1cc(F)c(C)c3c1c2[C@@H]([C@@H](CCO)N(C)C)CC3 (single isomer, unassigned) [Compound 15-97] , is 157
